- Subject Of Test: T1, human GITR (amino acids M1-V241, NCBI Accession #NP_004186.1) expressed on cells (human, UniProt Q9Y5U5 26-241)
- T1 sequence: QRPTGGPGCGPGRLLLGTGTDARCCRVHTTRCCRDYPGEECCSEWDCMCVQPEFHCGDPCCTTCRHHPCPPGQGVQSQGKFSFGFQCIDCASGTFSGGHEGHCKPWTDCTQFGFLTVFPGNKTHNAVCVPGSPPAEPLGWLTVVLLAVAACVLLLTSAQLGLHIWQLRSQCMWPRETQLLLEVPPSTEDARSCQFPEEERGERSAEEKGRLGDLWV
- Method Notes: cell-based or functional assay
Experimental Readout: % Activation, NF-kB-Luc, non-anchored (%)

binder="H1H14503P (antibody, human IgG1, V domains shown, human IgG1 (H1H)) VH: QVQLVESGGGVVQPGRSLRLSCEASGFTFSNYGFHWVRQAPGKGLDWVAVIWYAGSNKFYVDSVQGRFTISRDNSKQILFLQMNSLRAEDSAVYYCVRGGILGIDYYSGMDVWGQGTTVTVSS VL: AIQMTQSPSSLSASVGDRVTITCRASQDIRNDLGWYQQRPGKAPKFLIYSTSSLQSGVPSRFSGSGSGTDFILTISSLQPEDFATYYCLQSHNYPWTFGHGTKVEIK" reported_measurement=50
binder="H1H14520P (antibody, human IgG1, V domains shown, human IgG1 (H1H)) VH: QVQLVESGGGVVQPGRSLRLSCAASGFTFSSFGMHWVRQAPGKGLEWVAVISYDGRNRYYADSVKGRFTISRDNSKNTLYLQMNSLSAEDTAMFYCAKDGFGNSFDYWGQGTLVTVSS VL: DVVMTQSPLSLPVTLGQPASISCRSSQSLLYSDGNTYLTWFQQRPGQSPRRLIYKVSNRDSGVPDRFSGSGSGTDFTLTISRVEAEDVGIYYCMQGTHWPWTFGQGTKVEIK" reported_measurement=10
binder="H1H14512P (antibody, human IgG1, V domains shown, human IgG1 (H1H)) VH: QVQLVESGGGVVQPGRSLRLSCAVSGFTLSSYGMDWVRQAPGKGLEWVAVIWYDGSNKYYSDSVKGRFTISRDNSKNTLFLQMNSLRADDTAVYYCARDGELGLDYYSGMDVWGQGTTVTVSS VL: DIQMTQSPSSLSASVGDRVTITCRASQDIRNDLGWYQQKPGKAPKRLIYGASSLQSGVPSRFSGSGSGTEFTLTISSLQPEDFATYYCLQLNSYPRTFGQGTKVEIK" reported_measurement=20
